- System: Bacteroides dorei
- ASSAY DETAILS: growth AUC relative to DMSO control (median of replicates) (fraction); higher = more growth (less inhibition), active = hit call of the paper
- CONDITION LABEL: 20 µM; 24 h
condition met means recorded growth AUC is 1 or above; condition not met means it is below 1.

Q) Reported growth AUC at or above 1? CC(C)(C)C(O)/C(=C/c1ccc(Cl)cc1Cl)n1cncn1 (mixture of isomers)
A) condition not met

Q) Reported growth AUC at or above 1? N#CC(CCc1ccc(Cl)cc1)(Cn1cncn1)c1ccccc1 (stereo not given)
A) condition not met

Q) Reported growth AUC at or above 1? `CC1(C)CN=C(NN=C(/C=C/c2ccc(C(F)(F)F)cc2)/C=C/c2ccc(C(F)(F)F)cc2)NC1`
A) condition met

Q) Reported growth AUC at or above 1? `COc1ccc(C(c2ccc(OC)cc2)C(Cl)(Cl)Cl)cc1`
A) condition not met

Q) Reported growth AUC at or above 1? `CCN(CC)c1c([N+](=O)[O-])cc(C(F)(F)F)c(N)c1[N+](=O)[O-]`
A) condition not met

Q) Reported growth AUC at or above 1? `CCC(=O)Nc1ccc(Cl)c(Cl)c1`
A) condition met

---

- Tested on: Collinsella aerofaciens
- ASSAY DETAILS: growth AUC relative to DMSO control (median of replicates) (fraction); higher = more growth (less inhibition), active = hit call of the paper
- CONDITION LABEL: 20 µM; 24 h
For each of the compounds below, state its growth AUC.
Please respond with just the number, no unit label.

Q) Suppose we examine the compound CC(C)(C)C(O)C(Oc1ccc(-c2ccccc2)cc1)n1cncn1 (mixture of isomers) ; what growth AUC value has been reported?
A) 0.995

Q) Suppose we examine the compound CCCSP(=S)(OCC)Oc1ccc(Cl)cc1Cl (stereo unspecified) ; what growth AUC value has been reported?
A) 0.965

Q) Suppose we examine the compound `O=C(O)COc1nc(Cl)c(Cl)cc1Cl` ; what growth AUC value has been reported?
A) 0.99

Q) Suppose we examine the compound `O=C(NC(=O)c1c(F)cccc1F)Nc1cc(Cl)c(Oc2ncc(C(F)(F)F)cc2Cl)c(Cl)c1` ; what growth AUC value has been reported?
A) 1.11

Q) Suppose we examine the compound `CCOP(=S)(OCC)SCCS(=O)(=O)CC` ; what growth AUC value has been reported?
A) 0.995

Q) Suppose we examine the compound `CN(C)C1CSSSC1.O=C(O)C(=O)O` ; what growth AUC value has been reported?
A) 1.03

Q) Suppose we examine the compound `C[C@@H](Oc1ccc(Cl)cc1Cl)C(=O)O` ; what growth AUC value has been reported?
A) 0.977

Q) Suppose we examine the compound `Clc1cccc(C(Cl)(Cl)Cl)n1` ; what growth AUC value has been reported?
A) 0.974

Q) Suppose we examine the compound `CC[C@H](C)[C@H]1O[C@]2(C=C[C@@H]1C)C[C@@H]1C[C@@H](C/C=C(\C)[C@@H](O[C@H]3C[C@H](OC)[C@@H](O[C@H]4C[C@H](OC)[C@@H](NC)[C@H](C)O4)[C@H](C)O3)[C@@H](C)/C=C/C=C3\CO[C@@H]4[C@H](O)C(C)=C[C@@H](C(=O)O1)[C@]34O)O2.O=C(O)c1ccccc1` ; what growth AUC value has been reported?
A) 0.553

Q) Suppose we examine the compound `CN(C)C(=O)C(c1ccccc1)c1ccccc1` ; what growth AUC value has been reported?
A) 1.01

Q) Suppose we examine the compound `COC(=O)COc1ccc(Cl)cc1Cl` ; what growth AUC value has been reported?
A) 0.925

---

- Test system: Bacteroides dorei
- ASSAY DETAILS: growth AUC relative to DMSO control (median of replicates) (fraction); higher = more growth (less inhibition), active = hit call of the paper;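 active = AUC reduced over 20% with Padj below 0.05 in at least 2 of 3 replicates; inactive = otherwise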
- CONDITION LABEL: 20 µM; 24 h
Outcome (select one): true (1) for active, false (0) for inactive

Q) Record lookup: outcome of this test for `CON(C)C(=O)Nc1ccc(Cl)cc1` ?
A) false (0)

Q) Record lookup: outcome of this test for ClCC1C(CCl)C2(Cl)C(Cl)=C(Cl)C1(Cl)C2(Cl)Cl (stereo not drawn) ?
A) false (0)

Q) Record lookup: outcome of this test for `CCCSC(=O)N(CCC)CCC` ?
A) false (0)

Q) Record lookup: outcome of this test for `Cc1cc(C)c(C2=C(OC(=O)CC(C)(C)C)C3(CCCC3)OC2=O)c(C)c1` ?
A) false (0)

Q) Record lookup: outcome of this test for CCOP(=S)(OCC)SCCS(=O)CC (stereo not drawn) ?
A) false (0)

Q) Record lookup: outcome of this test for COP(=O)(OC)OC(Br)C(Cl)(Cl)Br (stereo not drawn) ?
A) false (0)

Q) Record lookup: outcome of this test for `Nc1c(Cl)cc([N+](=O)[O-])cc1Cl` ?
A) false (0)

Q) Record lookup: outcome of this test for `CCOc1ccc(C(C)(C)COCc2cccc(Oc3ccccc3)c2)cc1` ?
A) false (0)

Q) Record lookup: outcome of this test for `COC(=O)c1ccccc1CS(=O)(=O)NC(=O)Nc1nc(OC)cc(OC)n1` ?
A) false (0)

Q) Record lookup: outcome of this test for `CCOP(=S)(OCC)SCn1nnc2ccccc2c1=O` ?
A) false (0)

Q) Record lookup: outcome of this test for O=c1oc2ccccc2c(O)c1C(CC(O)c1ccc(-c2ccc(Br)cc2)cc1)c1ccccc1 (stereo not drawn) ?
A) true (1)

Q) Record lookup: outcome of this test for `COc1cc(OC)nc(NC(=O)[N-]S(=O)(=O)c2ncccc2OCC(F)(F)F)n1.[Na+]` ?
A) false (0)

Q) Record lookup: outcome of this test for CCCC1COC(Cn2cncn2)(c2ccc(Cl)cc2Cl)O1 (stereo not drawn) ?
A) false (0)

Q) Record lookup: outcome of this test for `CC1(C)[C@H](/C=C(\Cl)C(F)(F)F)[C@@H]1C(=O)O[C@@H](C#N)c1cccc(Oc2ccccc2)c1` ?
A) false (0)

Q) Record lookup: outcome of this test for `CCNS(=O)(=O)C(F)(F)C(F)(F)C(F)(F)C(F)(F)C(F)(F)C(F)(F)C(F)(F)C(F)(F)F` ?
A) false (0)

Q) Record lookup: outcome of this test for `CCOP(=S)(OCC)Oc1ccc(Cl)cc1Cl` ?
A) false (0)

Q) Record lookup: outcome of this test for `CCSCCSP(=S)(OC)OC` ?
A) false (0)

Q) Record lookup: outcome of this test for CCOP(=S)(Oc1cnc(C(C)(C)C)nc1)OC(C)C (stereo not drawn) ?
A) false (0)

Q) Record lookup: outcome of this test for `c1ccc2c(c1)-c1cccc3cccc-2c13` ?
A) false (0)

Q) Record lookup: outcome of this test for `CCCCN(CCCC)N=O` ?
A) false (0)

Q) Record lookup: outcome of this test for `CNC(=O)Oc1cccc2c1OC(C)(C)C2=O` ?
A) false (0)

Q) Record lookup: outcome of this test for CC1(C)C(C(=O)OC(C#N)c2cccc(Oc3ccccc3)c2)C1(C)C (stereo not drawn) ?
A) false (0)

Q) Record lookup: outcome of this test for `COC(=O)NS(=O)(=O)c1ccc(N)cc1` ?
A) false (0)

---

- Test system: Bacteroides dorei
- ASSAY DETAILS: growth AUC relative to DMSO control (median of replicates) (fraction); higher = more growth (less inhibition), active = hit call of the paper
- CONDITION LABEL: 20 µM; 24 h
For each of the compounds below, state its growth AUC.
Please respond with just the number, no unit label.

Q) Suppose we examine the compound `COC(=O)C(C)(Cl)Cl` ; what growth AUC value has been reported?
A) 1.02

Q) Suppose we examine the compound ClCC(Br)CBr (stereo unspecified) ; what growth AUC value has been reported?
A) 0.974

Q) Suppose we examine the compound `Cc1ccc2nc3sc(=O)sc3nc2c1` ; what growth AUC value has been reported?
A) 0.985

Q) Suppose we examine the compound `CC(C)N(C(=O)CCl)c1ccccc1` ; what growth AUC value has been reported?
A) 1.01

Q) Suppose we examine the compound `COC(=O)C1(O)c2ccccc2-c2ccccc21` ; what growth AUC value has been reported?
A) 1

Q) Suppose we examine the compound `CN(C)C(=O)Nc1ccc(Cl)cc1` ; what growth AUC value has been reported?
A) 1.01

Q) Suppose we examine the compound `[CH3][Hg][Cl]` ; what growth AUC value has been reported?
A) 0.96

Q) Suppose we examine the compound `C=CCN(CC=C)C(=O)C(Cl)Cl` ; what growth AUC value has been reported?
A) 1.01

Q) Suppose we examine the compound `N#Cc1c(O)c(Cl)c(Cl)c(C#N)c1Cl` ; what growth AUC value has been reported?
A) 0.969

Q) Suppose we examine the compound `CC(C)(C)[C@@H](O)[C@H](Oc1ccc(Cl)cc1)n1cncn1` ; what growth AUC value has been reported?
A) 0.953

Q) Suppose we examine the compound `CNC(=O)O/N=C(\SC)C(=O)N(C)C` ; what growth AUC value has been reported?
A) 1.05

Q) Suppose we examine the compound `COC(=O)N(OC)c1ccccc1COc1ccn(-c2ccc(Cl)cc2)n1` ; what growth AUC value has been reported?
A) 0.972

Q) Suppose we examine the compound `CC(C)OP(=O)(OC(C)C)SCc1ccccc1` ; what growth AUC value has been reported?
A) 0.981

Q) Suppose we examine the compound C#CCOc1ccc(CCNC(=O)C(OCC#C)c2ccc(Cl)cc2)cc1OC (stereo unspecified) ; what growth AUC value has been reported?
A) 0.957

Q) Suppose we examine the compound `CC(C)(C)c1ccc(CSc2cnn(C(C)(C)C)c(=O)c2Cl)cc1` ; what growth AUC value has been reported?
A) 0.991

Q) Suppose we examine the compound ClC1=C(Cl)C2(Cl)C3C(Cl)C=CC3C1(Cl)C2(Cl)Cl (stereo unspecified) ; what growth AUC value has been reported?
A) 0.958

Q) Suppose we examine the compound `O=P(O)(O)CCCl` ; what growth AUC value has been reported?
A) 0.986

Q) Suppose we examine the compound `CSc1nnc(C(C)(C)C)c(=O)n1N` ; what growth AUC value has been reported?
A) 1.02

Q) Suppose we examine the compound `COC(=O)Nc1cccc(OC(=O)Nc2cccc(C)c2)c1` ; what growth AUC value has been reported?
A) 1.02

Q) Suppose we examine the compound `CCC(C)(CC)c1cc(NC(=O)c2c(OC)cccc2OC)on1` ; what growth AUC value has been reported?
A) 1.03

Q) Suppose we examine the compound `Nc1cccc(Cl)c1Cl` ; what growth AUC value has been reported?
A) 0.999

Q) Suppose we examine the compound COC(C)(C)CCCC(C)C/C=C/C(C)=C/C(=O)OC(C)C (stereo unspecified) ; what growth AUC value has been reported?
A) 0.996

Q) Suppose we examine the compound COC(=O)C(C)N(C(=O)Cc1ccccc1)c1c(C)cccc1C (stereo unspecified) ; what growth AUC value has been reported?
A) 0.99

Q) Suppose we examine the compound `CCc1nn(C)c(C(=O)NCc2ccc(C(C)(C)C)cc2)c1Cl` ; what growth AUC value has been reported?
A) 0.921

Q) Suppose we examine the compound `Oc1ccc(-c2ccccc2)cc1` ; what growth AUC value has been reported?
A) 0.991

Q) Suppose we examine the compound `COP(=S)(OC)Oc1ccc([N+](=O)[O-])c(Cl)c1` ; what growth AUC value has been reported?
A) 0.972
